MIC90 overview
System: Streptococcus pneumoniae
TEST: Antimicrobial activity against multiple drug resistant Streptococcus pneumoniae serotype 19F by broth microdilution method
Format: functional

compound=CC(=O)NC[C@H]1CN(c2ccc(N3CCOCC3)c(F)c2)C(=O)O1 measurement_label=MIC90 test_value="1 µg/mL"
compound=CO/N=C(\C(=O)N[C@@H]1C(=O)N2C(C(=O)O)=C(COC(N)=O)CS[C@H]12)c1ccco1 measurement_label=MIC90 test_value="> 8 µg/mL"
compound="C[C@@H](O)[C@H]1C(=O)N2C(C(=O)O)=C(SCCNC=N)C[C@H]12 [IMIPENEM ANHYDROUS]" measurement_label=MIC90 test_value="1 µg/mL"
compound=CCC[C@@H]1C[C@@H](C(=O)N[C@@H]([C@H]2O[C@H](SC)[C@H](O)[C@@H](O)[C@H]2O)[C@H](C)Cl)N(C)C1 measurement_label=MIC90 test_value="> 2 µg/mL"
compound=C[C@H]1COc2c(N3CCN(C)CC3)c(F)cc3c(=O)c(C(=O)O)cn1c23.C[C@H]1COc2c(N3CCN(C)CC3)c(F)cc3c(=O)c(C(=O)O)cn1c23.O measurement_label=MIC90 test_value="1 µg/mL"

We now examine a further compound.
Respond only with MIC90 recorded for `CC[C@H]1OC(=O)[C@H](C)[C@@H](O[C@H]2C[C@@](C)(OC)[C@@H](O)[C@H](C)O2)[C@H](C)[C@@H](O[C@@H]2O[C@H](C)C[C@H](N(C)C)[C@H]2O)[C@](C)(O)C[C@@H](C)C(=O)[C@H](C)[C@@H](O)[C@]1(C)O`
> 8 µg/mL

---

System: Streptococcus pneumoniae
TEST: Antimicrobial activity against multiple drug resistant Streptococcus pneumoniae serotype 19A by broth microdilution method
Type: functional
MEASUREMENT LABEL: MIC90 (µg/mL)
Report the value in µg/mL with no unit label.

// worked examples, MIC90 included
compound_smiles=CC1(C)S[C@@H]2[C@H](NC(=O)Cc3ccccc3)C(=O)N2[C@H]1C(=O)O unit_label=µg/mL test_value=4
compound_smiles=CO/N=C(\C(=O)N[C@@H]1C(=O)N2C(C(=O)O)=C(CSc3nc(=O)c(O)nn3C)CS[C@H]12)c1csc(N)n1 unit_label=µg/mL test_value=4
compound_smiles=CC(=O)NC[C@H]1CN(c2ccc(N3CCOCC3)c(F)c2)C(=O)O1 unit_label=µg/mL test_value=1

Give the reported value of MIC90 for this record: `CC1(C)S[C@@H]2[C@H](NC(=O)COc3ccccc3)C(=O)N2[C@H]1C(=O)O`
4

---

System: Streptococcus pneumoniae
TEST: Antimicrobial activity against Streptococcus pneumoniae serotype 11A by broth microdilution method
Format: functional
Catalogue of MIC50 values

molecule=CO/N=C(\C(=O)N[C@@H]1C(=O)N2C(C(=O)O)=C(COC(N)=O)CS[C@H]12)c1ccco1 test_value="≤ 1 µg/mL"
molecule=CO/N=C(\C(=O)N[C@@H]1C(=O)N2C(C(=O)O)=C(CSc3nc(=O)c(O)nn3C)CS[C@H]12)c1csc(N)n1 test_value="≤ 0.25 µg/mL"

Check the records and state MIC50 for C[C@@H](O)[C@H]1C(=O)N2C(C(=O)O)=C(SCCNC=N)C[C@H]12 [IMIPENEM ANHYDROUS]
≤ 0.12 µg/mL

Fill in reported MIC50 for this entry: `C[C@H]1COc2c(N3CCN(C)CC3)c(F)cc3c(=O)c(C(=O)O)cn1c23.C[C@H]1COc2c(N3CCN(C)CC3)c(F)cc3c(=O)c(C(=O)O)cn1c23.O`
1 µg/mL

Provide MIC50 value for the following molecule: `COc1c(N2C[C@@H]3CCCN[C@@H]3C2)c(F)cc2c(=O)c(C(=O)O)cn(C3CC3)c12`
≤ 0.5 µg/mL

Retrieve MIC50 measured for `CC1(C)S[C@@H]2[C@H](NC(=O)Cc3ccccc3)C(=O)N2[C@H]1C(=O)O` and print it.
≤ 0.03 µg/mL

# return recorded MIC50 for entry `CC1(C)S[C@@H]2[C@H](NC(=O)COc3ccccc3)C(=O)N2[C@H]1C(=O)O`
≤ 0.03 µg/mL
